- Read-out: Vascular cell adhesion molecule 1 (VCAM1), VCAM1 (gene 7412)
- measurement.description: BSK_4H_VCAM1: BioMAP Diversity Plus: 4H Assay for Vascular cell adhesion molecule 1 (VCAM1) Biomarker Activity (AID 2283033)
- experimental.conditions: primary human endothelial cells (HUVEC); actives raise or lower the signal
- Procedure: BSK_4H is a cell-based, multiplexed-readout assay that uses umbilical vein endothelium, a human vascular primary cell, with measurements taken at 24 hours after chemical dosing in a 96-well plate.BSK_4H_VCAM1 is an assay component measured in the BSK_4H assay. It measures VCAM-1 antibody related to regulation of gene expression using ELISA technology.Data from the assay component BSK_4H_VCAM1 was analyzed into 1 assay endpoint. […]
The source made the active and inactive calls. How the source made its calls: active means hit-call score of the fitted dose curve at least 0.9, where 1 is the maximum; inactive means score below 0.9.
Possible outcomes: active, inactive

[
  {
    "molecule": "COc1ccc(CO)cc1",
    "assigned.category": "inactive"
  },
  {
    "molecule": "O=P1(NCCCl)OCCCN1CCCl (stereo unspecified)",
    "assigned.category": "inactive"
  },
  {
    "molecule": "CC(C)(C)C(=O)CCl",
    "assigned.category": "active"
  },
  {
    "molecule": "CC(C)(c1cc(Cl)c(O)c(Cl)c1)c1cc(Cl)c(O)c(Cl)c1",
    "assigned.category": "active"
  },
  {
    "molecule": "O=[N+]([O-])O",
    "assigned.category": "inactive"
  },
  {
    "molecule": "CNC(=O)Oc1cc(C)c(SC)c(C)c1",
    "assigned.category": "active"
  },
  {
    "molecule": "Oc1cc(Cl)ccc1Cl",
    "assigned.category": "inactive"
  },
  {
    "molecule": "Clc1ccc(-c2ccccc2)cc1",
    "assigned.category": "active"
  },
  {
    "molecule": "Cc1ccc(OP(=O)(Oc2ccc(C)cc2)Oc2ccc(C)cc2)cc1 (tested in a mixture with another compound)",
    "assigned.category": "inactive"
  },
  {
    "molecule": "CCCC[N+](CCCC)(CCCC)CCCC",
    "assigned.category": "inactive"
  },
  {
    "molecule": "COC(C)(C)CCC[C@H](C)C/C=C/C(C)=C/C(=O)OC(C)C",
    "assigned.category": "active"
  }
]

This collection of values is drawn from PubChem BioAssay (EPA / NIEHS).
